All figures here come from patent US12018023B2.

biological target: IDH2^R172K (Homo sapiens, UniProt P48735, R172K); construct: purchased not specified; assay: NADPH depletion assay, IDH2 R172K; format: biochemical
Sequence (P48735 40-452 R172K): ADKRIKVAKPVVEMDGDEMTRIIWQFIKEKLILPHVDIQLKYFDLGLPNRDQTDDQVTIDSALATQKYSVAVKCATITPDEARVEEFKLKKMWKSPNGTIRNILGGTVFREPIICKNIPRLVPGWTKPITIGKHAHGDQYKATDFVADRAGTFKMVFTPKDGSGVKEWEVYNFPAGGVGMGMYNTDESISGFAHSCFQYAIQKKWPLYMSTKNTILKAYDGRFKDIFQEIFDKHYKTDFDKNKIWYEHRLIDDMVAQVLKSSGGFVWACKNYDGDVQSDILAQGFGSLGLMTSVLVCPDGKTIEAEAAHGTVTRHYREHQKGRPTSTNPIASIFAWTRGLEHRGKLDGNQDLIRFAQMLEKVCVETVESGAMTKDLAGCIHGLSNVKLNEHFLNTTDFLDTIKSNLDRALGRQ
pIC50: −log10 of the molar value.
reported_endpoint: pIC50

{"molecule": "C[C@H](Nc1ncc2ccc(=O)n(CC3CCCCC3)c2n1)c1ccc(CN2CCC(F)(F)CC2)cc1", "pIC50": 5.26}

[a] C[C@H](Nc1ncc2ccc(=O)n(CC(C)(C)CO)c2n1)c1ccc2ccccc2c1
[b] C[C@H](Nc1ncc2ccc(=O)n(Cc3c(F)cccc3F)c2n1)c1ccc(Cl)cc1
Q) Between a and b , which one shows the larger pIC50 value? // respond with label for picked entry
A) b

[A] C[C@H](Nc1ncc2ccc(=O)n(CC(C)(C)C)c2n1)c1ccc(C(=O)N2CCC(F)(F)CC2)cc1
[B] C=CC(=O)N1CCN(Cc2ccc([C@H](C)Nc3ncc4ccc(=O)n(C(C)C)c4n3)cc2)CC1
Q) Between A and B , which one shows the larger pIC50 value? // respond with label for picked entry
A) B

[I] CC(C)n1c(=O)ccc2cnc(N[C@@H](C)c3ccc(CN4CCCC(F)(F)C4)cc3)nc21
[II] C[C@H](Nc1ncc2ccc(=O)n(CC(C)(C)C)c2n1)c1ccc(-c2ccnc(F)c2)cc1
[III] C=CC(=O)N1CCC(C#N)(c2ccc([C@H](C)Nc3ncc4ccc(=O)n(C(C)C)c4n3)cc2)CC1
[IV] C=CC(=O)N1CCC(Oc2ccc([C@H](C)Nc3ncc4ccc(=O)n(CC(C)(C)C)c4n3)cc2)CC1
Q) Ascending sort, pIC50. # format: label list in the order the request specifies
A) II, I, IV, III
(II: 5.21, I: 5.51, IV: 6.32, III: 6.84)

###

target: IDH1^R132H homodimer enzyme (Homo sapiens, UniProt O75874, R132H); experiment: NADPH depletion assay, IDH1 R132H
Sequence (O75874 whole entry R132H): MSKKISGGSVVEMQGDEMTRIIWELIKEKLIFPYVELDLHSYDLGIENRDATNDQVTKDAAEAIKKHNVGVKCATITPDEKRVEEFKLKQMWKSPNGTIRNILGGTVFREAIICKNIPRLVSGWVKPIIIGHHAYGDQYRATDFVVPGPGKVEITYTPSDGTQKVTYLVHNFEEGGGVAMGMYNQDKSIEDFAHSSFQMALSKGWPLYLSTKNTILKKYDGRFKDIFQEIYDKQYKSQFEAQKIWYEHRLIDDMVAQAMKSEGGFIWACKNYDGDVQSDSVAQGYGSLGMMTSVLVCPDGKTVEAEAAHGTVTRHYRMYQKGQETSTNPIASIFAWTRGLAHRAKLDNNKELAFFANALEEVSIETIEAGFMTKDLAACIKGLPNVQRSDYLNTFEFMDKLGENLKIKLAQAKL
reported_endpoint: IC50 (nM)

Example entries and their recorded answers appear below.
{"compound": "CCn1c(=O)ccc2cnc(N[C@@H](C)c3ccc(CN4CCN(C(=O)OC(C)(C)C)CC4)cc3)nc21", "value_reported": 2370}
{"compound": "Cc1ccccc1Cn1c(=O)ccc2cnc(N[C@@H](C)c3ccc(CN4CCC(F)(F)CC4)cc3)nc21", "value_reported": 190}

[I] C=CC(=O)N1CCN(Cc2ccc([C@H](C)Nc3ncc4ccc(=O)n(CC(C)(C)C)c4n3)cc2)CC1
[II] CC(C)[C@H](C)n1c(=O)ccc2cnc(N[C@@H](C)c3ccc(Br)cc3)nc21
Q) Between I and II , which one shows the larger IC50 value? // respond with label for picked entry
A) II
(II: 163 nM, I: 42 nM)

###

Molecular target: IDH1^R132C (Homo sapiens, UniProt O75874, R132C)
Sequence (O75874 whole entry R132C): as the sequence (O75874 whole entry R132H) above, with H132C counted along it
Test: NADPH depletion assay, IDH1 R132C
Procedure: IDH mutated enzyme activity converting alpha-ketoglutarate to 2-hydroxyglutaric acid is measured using a NADPH depletion assay. In the assay the remaining cofactor is measured at the end of the reaction with the addition of a catalytic excess of diaphorase and resazurin, to generate a fluorescent signal in proportion to the amount of NADPH remaining. […]
pIC50: −log10 of the molar value.
reported_endpoint: pIC50

Example entries and their recorded answers appear below.
{"compound": "C[C@H](Nc1ncc2ccc(=O)n(Cc3ccccc3)c2n1)c1nc(-c2ccc(Cl)cc2)no1 [cpd 53]", "pIC50": 6.28}
{"compound": "C=CC(=O)N1CCN([C@H](CC2CC2)c2ccc(C3(Nc4ncc5ccc(=O)n(C(C)C)c5n4)CC3)cc2)CC1 (single isomer, unassigned) [cpd 245]", "pIC50": 8.70}
{"compound": "CCn1c(=O)ccc2cnc(N[C@@H](C)c3ccc(CN4CCN(C(=O)OC(C)(C)C)CC4)cc3)cc21 [cpd 232]", "pIC50": 6.48}

[I] CC(C)[C@H](C)n1c(=O)ccc2cnc(N[C@@H](C)c3ccc(-c4ccnc(F)c4)cc3)nc21 [cpd 166]
[II] C[C@H](Nc1ncc2ccc(=O)n(CC3CCC3)c2n1)c1ccc(CN2CCC(F)(F)CC2)cc1 [cpd 109]
[III] C[C@H](Nc1ncc2ccc(=O)n(Cc3c(F)cccc3F)c2n1)c1ccc(C(=O)NC2CCOCC2)cc1 [cpd 78]
[IV] COc1cccc(Cn2c(=O)ccc3cnc(N[C@@H](C)c4ccc(Cl)cc4)nc32)c1 [cpd 30]
Q) Returns the items ordered by pIC50, from maximum to minimum. # format: label list in the order the request specifies
A) I, II, IV, III

###

biological target: IDH1^R132H homodimer enzyme (Homo sapiens, UniProt O75874, R132H); assay: NADPH depletion assay, IDH1 R132H
pIC50: −log10 of the molar value.
reported_endpoint: pIC50

{"compound": "CC(Nc1ncc2ccc(=O)n(Cc3ccccc3F)c2n1)c1ccc(CN2CCC(F)(F)CC2)cc1 (stereo not shown)", "reported_endpoint": "pIC50", "value_reported": 6.28}

[I] CC(C)(C)Cn1c(=O)ccc2cnc(NC3(c4ccccc4)CC3)nc21
[II] C[C@H](Nc1ncc2ccc(=O)n(CC(C)(C)C)c2n1)c1ccc(C(=O)N2CCC(F)(F)CC2)cc1
Q) # query: argmin of pIC50 over I and II // respond with label for picked entry
A) I
(I: 5.86, II: 6.46)

###

biological target: IDH1^R132C (Homo sapiens, UniProt O75874, R132C); assay: NADPH depletion assay, IDH1 R132C
reported_endpoint: IC50 (nM)

{"compound": "C=CC(=O)N1CCN(Cc2ccc([C@H](C)Nc3ncc4ccc(=O)n(CC)c4n3)cc2)[C@H](C(C)C)C1 [cpd 209]", "value_reported": 46}

[A] CCN1CCN(c2ccc([C@H](C)Nc3ncc4ccc(=O)n([C@@H](C)C(C)C)c4n3)cc2)CC1 [cpd 177]
[B] C=CC(=O)N1CCN(C(CC)c2ccc([C@H](C)Nc3ncc4ccc(=O)n(C5CC5)c4n3)cc2)CC1 (stereo partly drawn) [cpd 218]
Q) Between A and B , which one shows the larger IC50 value? // respond with label for picked entry
A) A

###

target: IDH1^R132H homodimer enzyme (Homo sapiens, UniProt O75874, R132H); experiment: NADPH depletion assay, IDH1 R132H
reported_endpoint: IC50 (nM)

Example entries and their recorded answers appear below.
{"compound": "CCCn1c(=O)ccc2cnc(N[C@@H](C)c3ccc(CN4CCN(C(C)=O)CC4)cc3)nc21", "IC50, nM": 1590}
{"compound": "CC(Nc1ncc2ccc(=O)n(CC(C)(C)C)c2n1)c1ccc(C(=O)NC2CCC(F)(F)CC2)c(Cl)c1 (stereo not shown)", "IC50, nM": 146}
{"compound": "C=CC(=O)N1CCN(Cc2ccc([C@H](C)Nc3ncc4ccc(=O)n(C(C)C)c4n3)cc2F)CC1", "IC50, nM": 52}

[1] C[C@H](Nc1ncc2ccc(=O)n(Cc3cccc(O)c3)c2n1)c1ccc(Cl)cc1
[2] CC(C)[C@H](C)n1c(=O)ccc2cnc(N[C@@H](C)c3ccc(C4=CCN(C(=O)OC(C)(C)C)CC4)cc3)nc21
[3] CC(Nc1ncc2ccc(=O)n(Cc3c(F)cccc3F)c2n1)c1ccc(CN2CCC(F)(F)CC2)cc1 (stereo not shown)
[4] C=CC(=O)N1CCN(c2ccc([C@H](C)Nc3ncc4ccc(=O)n([C@@H](C)C(C)C)c4n3)cc2)CC1
[5] CC(C)[C@H](C)n1c(=O)ccc2cnc(N[C@@H](C)c3ccc(-c4ccnc(F)c4)cc3)nc21
Q) Returns the items ordered by IC50, from maximum to minimum. # format: label list in the order the request specifies
A) 1, 3, 5, 4, 2
(1: 2480 nM, 3: 366 nM, 5: 179 nM, 4: 65 nM, 2: 30 nM)

###

biological target: IDH1^R132C (Homo sapiens, UniProt O75874, R132C); test: NADPH depletion assay, IDH1 R132C
reported_endpoint: IC50 (nM)

{"compound": "CC[C@H](c1ccc([C@H](C)Nc2ncc3ccc(=O)n(C(C)C)c3n2)cc1)N1CCN(C(=O)CCO)CC1 [cpd 243]", "experimental_target": "IDH1^R132C (Homo sapiens, UniProt O75874, R132C)", "reported_endpoint": "IC50", "value_reported": 20}

[1] COCCn1c(=O)ccc2cnc(N[C@@H](C)c3ccc(CN4CCC(F)(F)CC4)cc3)nc21 [cpd 114]
[2] C[C@H](Nc1ncc2ccc(=O)n(CC(F)(CF)CF)c2n1)c1ccc(CN2CCC(F)(F)CC2)cc1 [cpd 107]
Q) # query: argmin of IC50 over 1 and 2 // respond with label for picked entry
A) 2

[A] C=CC(=O)N1CCN(Cc2ccc([C@H](C)Nc3cc4c(ccc(=O)n4CC)cn3)cc2)CC1 [cpd 236]
[B] CCn1c(=O)ccc2cnc(N[C@@H](C)c3ccc(Cl)cc3)nc21 [cpd 14]
[C] C[C@H](Nc1ncc2ccc(=O)n(Cc3ccc(F)cc3)c2n1)c1ccc(Cl)cc1 [cpd 28]
[D] C[C@H](Nc1ncc2ccc(=O)n(CC(C)(C)C)c2n1)c1ccc(CN2CCCC(F)(F)C2)cc1 [cpd 117]
[E] C[C@H](Nc1ncc2ccc(=O)n(CC(C)(C)C(N)=O)c2n1)c1ccc2ccccc2c1 [cpd 122]
Q) Returns the items ordered by IC50, from maximum to minimum. # format: label list in the order the request specifies
A) B, C, E, A, D
(B: 850 nM, C: 590 nM, E: 386 nM, A: 105 nM, D: 29 nM)
